# Test system: Chenopodium album
# method_notes: Test of herbicidal activities (greenhouse pot method)
# Type: in vivo
# test_conditions: single dose 300 g ai./h, treated before/after germination, 15 days later, greenhouse pot
recorded_metric: Herbicidal activity Chenopodium album (inhibition level)

[[record]]
compound = "CCOCCSc1nc2cc(-n3nc(C)n(C(F)F)c3=O)c(Cl)cc2s1"
measured = "B (80 ≦ B < 90%)"

[[record]]
compound = "Cc1nn(-c2cc3nc(SCc4cccs4)sc3cc2F)c(=O)n1C(F)F"
measured = "A (90 ≦ A ≦ 100%)"

[[record]]
compound = "Cc1nn(-c2cc3nc(SCc4ccccc4)sc3cc2F)c(=O)n1C"
measured = "C (60 ≦ C < 80%)"

[[record]]
compound = "CCCCCCS(=O)(=O)c1nc2cc(-n3nc(C)n(C(F)F)c3=O)c(F)cc2s1"
measured = "A (90 ≦ A ≦ 100%)"

[[record]]
compound = "Cc1nn(-c2cc3nc(SCc4csc(Cl)n4)sc3cc2F)c(=O)n1C(F)F"
measured = "C (60 ≦ C < 80%)"

[[record]]
compound = "Cc1nn(-c2cc3nc(S(=O)(=O)Cc4ccccc4)sc3cc2F)c(=O)n1C(F)F"
measured = "B (80 ≦ B < 90%)"

[[record]]
compound = "CCS(=O)(=O)c1nc2cc(-n3nc(C)n(C(F)F)c3=O)c(Cl)cc2s1"
measured = "A (90 ≦ A ≦ 100%)"

[[record]]
compound = "CCOC(=O)C(C)S(=O)(=O)c1nc2cc(-n3nc(C)n(C(F)F)c3=O)c(F)cc2s1 (centres unmarked)"
measured = "B (80 ≦ B < 90%)"

[[record]]
compound = "Cc1nn(-c2cc3nc(SCc4ccc(F)cc4)sc3cc2F)c(=O)n1C(F)F"
measured = "B (80 ≦ B < 90%)"

[[record]]
compound = "Cc1ccccc1CSc1nc2cc(-n3nc(C)n(C(F)F)c3=O)c(F)cc2s1"
measured = "C (60 ≦ C < 80%)"

[[record]]
compound = "CCOC(=O)C(C)Sc1nc2cc(-n3nc(C)n(C(F)F)c3=O)c(Br)cc2s1 (centres unmarked)"
measured = "B (80 ≦ B < 90%)"

[[record]]
compound = "C=CCSc1nc2cc(-n3nc(C(F)(F)F)n(C(F)F)c3=O)c(Br)cc2s1"
measured = "B (80 ≦ B < 90%)"

[[record]]
compound = "CCCCSc1nc2cc(-n3nc(C)n(C(F)F)c3=O)c(F)cc2s1"
measured = "C (60 ≦ C < 80%)"

[[record]]
compound = "CSc1nc2cc(-n3nc(C(F)(F)F)n(C(F)F)c3=O)c(Cl)cc2s1"
measured = "B (80 ≦ B < 90%)"

[[record]]
compound = "CSc1nc2cc(-n3nc(C)n(C(F)F)c3=O)c(Br)cc2s1"
measured = "C (60 ≦ C < 80%)"

[[record]]
compound = "Cc1ccc([N+](=O)[O-])c(CSc2nc3cc(-n4nc(C)n(C(F)F)c4=O)c(F)cc3s2)c1"
measured = "C (60 ≦ C < 80%)"


====

# System: Chenopodium album
# method_notes: Test of herbicidal activities (greenhouse pot method)
# Format: in vivo
# test_conditions: single dose 300 g ai./h, treated before/after germination, 15 days later, greenhouse pot
recorded_metric: Herbicidal activity Chenopodium album (inhibition level)

[[record]]
molecule = "Cc1nn(-c2cc3nc(SCc4ccc(Cl)cc4)sc3cc2Cl)c(=O)n1C(F)F"
measured = "E (E < 50%)"

[[record]]
molecule = "CCOC(=O)CS(=O)(=O)c1nc2cc(-n3nc(C)n(C(F)F)c3=O)c(F)cc2s1"
measured = "A (90 ≦ A ≦ 100%)"

[[record]]
molecule = "CCOC(=O)CSc1nc2cc(-n3nc(C(F)(F)F)n(C(F)F)c3=O)c(F)cc2s1"
measured = "E (E < 50%)"

[[record]]
molecule = "CCCCCC[S+]([O-])c1nc2cc(-n3nc(C)n(C(F)F)c3=O)c(Cl)cc2s1 (stereo not shown)"
measured = "A (90 ≦ A ≦ 100%)"

[[record]]
molecule = "CC[S+]([O-])c1nc2cc(-n3nc(C)n(C(F)F)c3=O)c(Br)cc2s1 (stereo not shown)"
measured = "A (90 ≦ A ≦ 100%)"


====

# Tested on: Chenopodium album
# method_notes: Test of herbicidal activities (greenhouse pot method)
# Type: in vivo
# test_conditions: single dose 300 g ai./h, treated before/after germination, 15 days later, greenhouse pot
recorded_metric: Herbicidal activity Chenopodium album (inhibition level)

[[record]]
compound = "Cc1nn(-c2cc3nc(S(=O)(=O)Cc4ccc(F)cc4F)sc3cc2F)c(=O)n1C(F)F"
assay_target = "Chenopodium album"
measured = "B (80 ≦ B < 90%)"

[[record]]
compound = "CSc1nc2cc(-n3nc(C)n(C)c3=O)c(F)cc2s1"
assay_target = "Chenopodium album"
measured = "C (60 ≦ C < 80%)"

[[record]]
compound = "CC[S+]([O-])c1nc2cc(-n3nc(C)n(C(F)F)c3=O)c(F)cc2s1 (stereo not shown)"
assay_target = "Chenopodium album"
measured = "D (50 ≦ D < 60%)"

[[record]]
compound = "Cc1nn(-c2cc3nc(SCc4c(F)cccc4F)sc3cc2Cl)c(=O)n1C(F)F"
assay_target = "Chenopodium album"
measured = "C (60 ≦ C < 80%)"

[[record]]
compound = "CCCC[S+]([O-])c1nc2cc(-n3nc(C)n(C(F)F)c3=O)c(F)cc2s1 (stereo not shown)"
assay_target = "Chenopodium album"
measured = "B (80 ≦ B < 90%)"

[[record]]
compound = "Cc1nn(-c2cc3nc(SCc4cccc(Cl)c4)sc3cc2Cl)c(=O)n1C(F)F"
assay_target = "Chenopodium album"
measured = "C (60 ≦ C < 80%)"

[[record]]
compound = "Cc1nn(-c2cc3nc(S(=O)(=O)Cc4cccc([N+](=O)[O-])c4)sc3cc2F)c(=O)n1C(F)F"
assay_target = "Chenopodium album"
measured = "D (50 ≦ D < 60%)"

[[record]]
compound = "CCOC(=O)C(C)Sc1nc2cc(-n3nc(C(F)(F)F)n(C(F)F)c3=O)c(Cl)cc2s1 (stereo not shown)"
assay_target = "Chenopodium album"
measured = "B (80 ≦ B < 90%)"


====

# Test system: Chenopodium album
# method_notes: Test of herbicidal activities (greenhouse pot method)
# Type: in vivo
# test_conditions: single dose 300 g ai./h, treated before/after germination, 15 days later, greenhouse pot
recorded_metric: Herbicidal activity Chenopodium album (inhibition level)

[[record]]
molecule = "CCOC(=O)C(C)S(=O)(=O)c1nc2cc(-n3nc(C)n(C(F)F)c3=O)c(Br)cc2s1 (stereo not shown) [Compound 59]"
measured = "B (80 ≦ B < 90%)"

[[record]]
molecule = "Cc1nn(-c2cc3nc(S(=O)(=O)Cc4ccccc4F)sc3cc2F)c(=O)n1C(F)F [Compound 52]"
measured = "B (80 ≦ B < 90%)"

[[record]]
molecule = "Cc1ccc(CSc2nc3cc(-n4nc(C)n(C(F)F)c4=O)c(F)cc3s2)cc1 [Compound 15]"
measured = "B (80 ≦ B < 90%)"

[[record]]
molecule = "C=CCS(=O)(=O)c1nc2cc(-n3nc(C)n(C(F)F)c3=O)c(F)cc2s1 [Compound 66]"
measured = "B (80 ≦ B < 90%)"

[[record]]
molecule = "Cc1nn(-c2cc3nc(SCc4ccccc4Cl)sc3cc2Cl)c(=O)n1C(F)F [Compound 3]"
measured = "E (E < 50%)"

[[record]]
molecule = "CCCSc1nc2cc(-n3nc(C)n(C(F)F)c3=O)c(F)cc2s1 [Compound 92]"
measured = "E (E < 50%)"

[[record]]
molecule = "Cc1nn(-c2cc3nc(SCc4ccc(F)cc4F)sc3cc2Cl)c(=O)n1C(F)F [Compound 8]"
measured = "C (60 ≦ C < 80%)"

[[record]]
molecule = "Cc1nn(-c2cc3nc(S(=O)(=O)Cc4cccc(Cl)c4)sc3cc2F)c(=O)n1C(F)F [Compound 53]"
measured = "B (80 ≦ B < 90%)"

[[record]]
molecule = "CSc1nc2cc(-n3nc(C)n(C(F)F)c3=O)c(F)cc2s1 [Compound 90]"
measured = "A (90 ≦ A ≦ 100%)"

[[record]]
molecule = "Cc1nn(-c2cc3nc(SCc4cccc(F)c4)sc3cc2Cl)c(=O)n1C(F)F [Compound 7]"
measured = "E (E < 50%)"

[[record]]
molecule = "CCOC(=O)C(C)[S+]([O-])c1nc2cc(-n3nc(C)n(C(F)F)c3=O)c(F)cc2s1 (stereo not shown) [Compound 118]"
measured = "B (80 ≦ B < 90%)"

[[record]]
molecule = "CCOC(=O)C(C)Sc1nc2cc(-n3nc(C)n(C(F)F)c3=O)c(F)cc2s1 (stereo not shown) [Compound 89]"
measured = "C (60 ≦ C < 80%)"

[[record]]
molecule = "CCCCS(=O)(=O)c1nc2cc(-n3nc(C)n(C(F)F)c3=O)c(F)cc2s1 [Compound 63]"
measured = "A (90 ≦ A ≦ 100%)"

[[record]]
molecule = "Cc1nn(-c2cc3nc(SCc4ccco4)sc3cc2F)c(=O)n1C(F)F [Compound 29]"
measured = "B (80 ≦ B < 90%)"

[[record]]
molecule = "Cc1nn(-c2cc3nc(SCc4ccc(F)cc4F)sc3cc2F)c(=O)n1C(F)F [Compound 12]"
measured = "E (E < 50%)"

[[record]]
molecule = "Cc1nn(-c2cc3nc(SCc4cccc([N+](=O)[O-])c4)sc3cc2F)c(=O)n1C(F)F [Compound 13]"
measured = "C (60 ≦ C < 80%)"

[[record]]
molecule = "Cc1nn(-c2cc3nc(SCc4ccc(Cl)cc4)sc3cc2Br)c(=O)n1C(F)F [Compound 25]"
measured = "E (E < 50%)"

[[record]]
molecule = "CCCCCC[S+]([O-])c1nc2cc(-n3nc(C)n(C(F)F)c3=O)c(F)cc2s1 (stereo not shown) [Compound 112]"
measured = "B (80 ≦ B < 90%)"

[[record]]
molecule = "CCSc1nc2cc(-n3nc(C)n(C(F)F)c3=O)c(Cl)cc2s1 [Compound 86]"
measured = "B (80 ≦ B < 90%)"

[[record]]
molecule = "C=CCSc1nc2cc(-n3nc(C)n(C(F)F)c3=O)c(Br)cc2s1 [Compound 88]"
measured = "B (80 ≦ B < 90%)"

[[record]]
molecule = "Cc1nn(-c2cc3nc(SCc4cccc(F)c4)sc3cc2F)c(=O)n1C(F)F [Compound 19]"
measured = "A (90 ≦ A ≦ 100%)"

